# experimental system: dopamine transporter (Rattus norvegicus, UniProt P23977)
# Construct: from tissue
# Sequence (P23977 whole entry): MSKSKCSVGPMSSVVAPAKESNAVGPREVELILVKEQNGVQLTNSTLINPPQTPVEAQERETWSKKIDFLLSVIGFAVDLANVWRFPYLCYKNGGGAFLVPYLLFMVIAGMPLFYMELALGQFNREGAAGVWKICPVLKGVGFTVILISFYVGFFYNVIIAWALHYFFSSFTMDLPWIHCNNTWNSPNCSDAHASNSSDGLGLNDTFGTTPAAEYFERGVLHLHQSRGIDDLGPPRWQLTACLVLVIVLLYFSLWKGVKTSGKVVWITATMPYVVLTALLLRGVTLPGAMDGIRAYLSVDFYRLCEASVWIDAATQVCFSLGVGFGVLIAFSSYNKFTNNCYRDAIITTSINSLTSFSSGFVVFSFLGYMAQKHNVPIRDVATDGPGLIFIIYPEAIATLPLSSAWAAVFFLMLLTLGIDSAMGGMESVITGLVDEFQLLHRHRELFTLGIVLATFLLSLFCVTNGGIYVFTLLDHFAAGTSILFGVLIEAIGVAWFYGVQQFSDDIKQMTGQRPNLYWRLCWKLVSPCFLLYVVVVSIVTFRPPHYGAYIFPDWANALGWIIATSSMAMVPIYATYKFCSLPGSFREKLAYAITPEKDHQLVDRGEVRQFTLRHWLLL
# protocol summary: Inhibition of binding of dopamine to the dopamine transporter (Example 4)
property name: IC50 (nM)

>>> result("CN(C)C1CC(c2ccc(Cl)c(Cl)c2)c2ccccc21 (stereo not shown)")
47
